Known IC50 of a selection of compounds
- SYSTEM_TESTED: menin/MLL (terbium chelate-labeled menin, FITC-MBM1 peptide) (Homo sapiens, UniProt O00255, T541A)
- Construct: Menin (a.a 1-610-6xhis tag)
- Sequence (O00255 with tags, fused parts or gaps T541A): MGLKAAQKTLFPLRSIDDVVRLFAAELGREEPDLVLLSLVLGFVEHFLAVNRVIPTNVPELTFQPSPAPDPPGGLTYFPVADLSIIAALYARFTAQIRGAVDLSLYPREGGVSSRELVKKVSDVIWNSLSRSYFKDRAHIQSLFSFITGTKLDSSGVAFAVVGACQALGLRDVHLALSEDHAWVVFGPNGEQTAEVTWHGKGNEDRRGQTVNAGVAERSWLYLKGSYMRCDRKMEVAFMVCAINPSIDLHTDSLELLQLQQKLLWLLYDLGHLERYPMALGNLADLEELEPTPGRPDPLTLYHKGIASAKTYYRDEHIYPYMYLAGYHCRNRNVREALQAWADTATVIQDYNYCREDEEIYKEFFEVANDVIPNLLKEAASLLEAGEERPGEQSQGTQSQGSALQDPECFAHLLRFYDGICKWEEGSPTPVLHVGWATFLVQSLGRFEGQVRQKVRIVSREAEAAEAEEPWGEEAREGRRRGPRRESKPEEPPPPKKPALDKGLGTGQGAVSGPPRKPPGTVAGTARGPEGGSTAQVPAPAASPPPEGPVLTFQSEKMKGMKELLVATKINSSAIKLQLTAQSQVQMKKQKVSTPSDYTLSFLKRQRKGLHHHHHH
- METHOD_DESCRIPTION: Menin/MLL homogenous time-resolved fluorescence (HTRF) assay
- Format: binding
- DETAILS: 30 min incubation
Give the quantity in pM, number only.

Answered cases to consult:
COMPOUND | VALUE_UNITS | IC50
CC(C)[C@H]([C@H]1C[C@@H](N2CCCCC2)C1)N1CC2(CCN(c3ncnnc3Oc3ccc(F)cc3-c3cncnc3C3CC3)C2)C1 (single isomer, unassigned) | pM | 300
CC(C)C([C@H]1C[C@@H](N(C)C)C1)N1CC2(CCN(c3ncnnc3Oc3ccc(F)cc3-c3cncnc3C3CC3)C2)C1 (single isomer, unassigned) [Compound 7] | pM | 100
CC(C)[C@H]([C@H]1C[C@@H](N2C[C@H]3C[C@@H]2CO3)C1)N1CC2(CCN(c3ncnnc3Oc3ccc(F)cc3-c3ncccc3C3CC3)C2)C1 (single isomer, unassigned) | pM | 100
Cc1nnc(-c2cnc(N[C@H]3C[C@@H]([C@@H](C(C)C)N4CC5(CCN(c6ncnnc6Oc6ccc(F)cc6-c6cncnc6C6CC6)C5)C4)C3)s2)o1 (single isomer, unassigned) | pM | 190

Here's the next entry for you.
q: Value lookup for IC50; key = CC(C)[C@@H]([C@H]1C[C@@H](N2CC[C@@H](C(=O)N(C)C)C2)C1)N1CC2(CCN(c3ncnnc3Oc3ccc(F)cc3-c3cnncc3C3CC3)C2)C1 (single isomer, unassigned)
a: 100

###

- Test system: KO-52 cells
- METHOD_DESCRIPTION: Proliferation assay, spheroid-like growth, KO-52 (MLL wildtype control cell line)
- Format: cell-based, human
- DETAILS: Homo sapiens, 192 h, KO-52 control cells, 8 days, confluence as measure of spheroid size; read-out: spheroid assay_OneTime KO-52 IC50
- Experimental: The anti-proliferative effect of menin/MLL protein/protein interaction inhibitor test compounds was assessed in human leukemia cell lines. […] In order to assess the anti-proliferative effects, 200 MOLM14 cells, or 300 KO-52 cells were seeded in 200 μl media per well in 96-well round bottom, ultra-low attachment plates (Costar, catalogue number 7007). […] Spheroid like growth was measured in real-time by live-cell imaging (IncuCyteZOOM, Essenbio, 4× objective) acquiring images at day 8. […]
RESULT_TYPE: pIC50
The quantity pIC50 is defined as the negative base-10 logarithm of the molar concentration.

Answered cases to consult:
MOLECULE | MEASUREMENT
CC(C)[C@H]([C@H]1C[C@@H](NC2CC2)C1)N1CC2(CCN(c3ncnnc3Oc3ccc(F)cc3-c3cncnc3C3CC3)C2)C1 (single isomer, unassigned) | 5.83
CC(C)C(C1CCN(CC2COC2)CC1)N1CC2(CCN(c3ncnnc3Oc3ccc(F)cc3-c3cncnc3C3CC3)C2)C1 (centres unmarked) | 5.19

q: Value lookup for pIC50; key = CC(=O)N[C@H]1C[C@@H](C(C(C)C)N2CC3(CCN(c4ncnnc4Oc4ccc(F)cc4-c4nccnc4C4CC4)C3)C2)C1 (some centres unmarked)
a: 4.98

###

- System: MOLM14 cells
- METHOD_DESCRIPTION: Proliferation assay, spheroid-like growth, MOLM14 (MLL-AF9 rearranged)
- Type: cell-based, human
- DETAILS: Homo sapiens, MOLM-14, 192 h, 8 days, confluence as measure of spheroid size, read-out: spheroid assay_OneTime MOLM14 IC50
Known pIC50 of a selection of compounds
The quantity pIC50 is defined as the negative base-10 logarithm of the molar concentration.

Answered cases to consult:
COMPOUND | MEASUREMENT
CC(C)C([C@H]1C[C@@H](N(C)C)C1)N1CC2(CCN(c3ncnnc3Oc3ccc(F)cc3-c3cncnc3C3CC3)C2)C1 (single isomer, unassigned) [Compound 7] | 8.40
CC(=O)N[C@H]1C[C@@H]([C@@H](C(C)C)N2CC3(CCN(c4ncnnc4Oc4ccc(F)cc4-c4nccnc4C4CC4)C3)C2)C1 (single isomer, unassigned) | 7.43
CC(=O)N1CCC12CN([C@H]1C[C@H]([C@@H](C(C)C)N3CC4(CCN(c5ncnnc5Oc5ccc(F)cc5-c5cncnc5C5CC5)C4)C3)C1)C2 (single isomer, unassigned) | 6.82
CC(C)[C@H]([C@H]1C[C@H](N2CC3(COC3)C2)C1)N1CC2(CCN(c3ncnnc3Oc3ccc(F)cc3-c3cnncc3C3CC3)C2)C1 (single isomer, unassigned) | 6.01
CC(C)[C@H]([C@H]1C[C@@H](N2CCC3(C2)CS(=O)(=O)C3)C1)N1CC2(CCN(c3ncnnc3Oc3ccc(F)cc3-c3cncnc3C3CC3)C2)C1 (single isomer, unassigned) | 7.41

q: Value lookup for pIC50; key = CO[C@@H]1CCN([C@H]2C[C@@H]([C@H](C(C)C)N3CC4(CCN(c5ncnnc5Oc5ccc(F)cc5-c5nnccc5C5CC5)C4)C3)C2)C1 (single isomer, unassigned)
a: 8.22

q: Next compound up: CC(C)[C@@H]([C@H]1C[C@@H](N2CCC3(CCO3)CC2)C1)N1CC2(CCN(c3ncnnc3Oc3ccc(F)cc3-c3nnccc3C3CC3)C2)C1 (single isomer, unassigned)
a: 8.15

q: Next compound up: CC(=O)N[C@H]1C[C@@H]([C@@H](C(C)C)N2CC3(CCN(c4ncnnc4Oc4ccc(F)cc4-c4ncncc4C4CC4)C3)C2)C1 (single isomer, unassigned)
a: 7.21

q: Next compound up: CC(C)[C@H]([C@H]1C[C@@H](N2CCC3(CCO3)CC2)C1)N1CC2(CCN(c3ncnnc3Oc3ccc(F)cc3-c3cncnc3C3CC3)C2)C1 (single isomer, unassigned)
a: 8.15

###

Known IC50 of a selection of compounds
- Test system: KO-52 cells
- METHOD_DESCRIPTION: Proliferation assay, spheroid-like growth, KO-52 (MLL wildtype control cell line)
- Type: cell-based, human
- DETAILS: Homo sapiens, 192 h, KO-52 control cells, 8 days, confluence as measure of spheroid size; read-out: spheroid assay_OneTime KO-52 IC50

COMPOUND | SYSTEM_TESTED | IC50
CC(C)[C@H]([C@H]1C[C@@H](N2CCC[C@@H](C(=O)N(C)C)C2)C1)N1CC2(CCN(c3ncnnc3Oc3ccc(F)cc3-c3cncnc3C3CC3)C2)C1 (single isomer, unassigned) [Compound 50] | KO-52 cells | > 15 µM
CC(C)C([C@H]1C[C@@H](N2CCC(C)(O)CC2)C1)N1CC2(CCN(c3ncnnc3Oc3ccc(F)cc3-c3cncnc3C3CC3)C2)C1 (stereo partly drawn) [Compound 129] | KO-52 cells | 3.39 µM

Here's the next entry for you.
q: Value lookup for IC50; key = CC(=O)N1CC[C@@]12CCN([C@H]1C[C@@H]([C@@H](C(C)C)N3CC4(CCN(c5ncnnc5Oc5ccc(F)cc5-c5cncnc5C5CC5)C4)C3)C1)C2 (single isomer, unassigned) [Compound 59]
a: 5.01 µM

###

- Tested on: MOLM14 cells
- METHOD_DESCRIPTION: Proliferation assay, spheroid-like growth, MOLM14 (MLL-AF9 rearranged)
- Type: cell-based, human
- DETAILS: Homo sapiens, MOLM-14, 192 h, 8 days, confluence as measure of spheroid size, read-out: spheroid assay_OneTime MOLM14 IC50
RESULT_TYPE: pIC50
The quantity pIC50 is defined as the negative base-10 logarithm of the molar concentration.

q: Value lookup for pIC50; key = COC1CCN([C@H]2C[C@@H](C(C(C)C)N3CC4(CCN(c5ncnnc5Oc5ccc(F)cc5-c5cncnc5C5CC5)C4)C3)C2)CC1 (single isomer, unassigned) [Compound 16]
a: 8.40

q: Next compound up: CC(C)[C@@H]([C@H]1C[C@H](N2C[C@H]3COC[C@H]3C2)C1)N1CC2(CCN(c3ncnnc3Oc3ccc(F)cc3-c3cnncc3C3CC3)C2)C1 (single isomer, unassigned) [Compound 279]
a: 7.70
